Reference source: patent US10757937B2

// values below are reported PP2C Activity (25 μm) PYL4
Target: PYL4 (Arabidopsis thaliana, UniProt O80920)
Construct: 6X-His; made in house; host or cells: E. coli BL21[DE3]pLysS
Sequence (O80920 whole entry): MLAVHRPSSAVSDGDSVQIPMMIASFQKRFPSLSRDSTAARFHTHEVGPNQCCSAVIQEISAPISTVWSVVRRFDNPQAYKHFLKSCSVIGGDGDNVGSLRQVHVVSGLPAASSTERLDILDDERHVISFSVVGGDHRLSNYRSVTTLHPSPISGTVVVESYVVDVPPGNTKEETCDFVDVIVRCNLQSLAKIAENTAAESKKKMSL
Sequence (Q9CAJ0 23-511 partner): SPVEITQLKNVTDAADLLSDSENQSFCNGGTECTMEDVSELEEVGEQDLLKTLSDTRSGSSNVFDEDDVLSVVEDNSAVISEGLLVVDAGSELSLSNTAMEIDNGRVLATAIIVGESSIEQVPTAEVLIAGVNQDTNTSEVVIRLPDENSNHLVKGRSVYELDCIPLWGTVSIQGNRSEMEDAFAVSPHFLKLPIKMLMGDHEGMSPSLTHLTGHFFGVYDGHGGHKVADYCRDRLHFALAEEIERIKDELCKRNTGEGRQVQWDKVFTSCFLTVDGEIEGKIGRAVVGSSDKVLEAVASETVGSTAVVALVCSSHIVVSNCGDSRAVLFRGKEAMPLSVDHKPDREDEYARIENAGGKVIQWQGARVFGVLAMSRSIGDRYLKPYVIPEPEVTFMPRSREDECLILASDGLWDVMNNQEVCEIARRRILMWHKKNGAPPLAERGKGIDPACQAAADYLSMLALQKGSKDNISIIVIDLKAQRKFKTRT
Assay: receptor-mediated PP2C (HAB1) inhibition in vitro assay
Assay type: biochemical
Conditions: compound at 25 μM; control without agonist = 100%
ENDPOINT: PP2C Activity (25 μm) PYL4 (%)

INSERT INTO measurements (smiles_representation, unit_spec, result_number) VALUES
  ('CCc1ccc(C(C)(C)C(=O)NS(=O)(=O)Cc2ccc(C#N)cc2)cc1', '%', 95),
  ('N#Cc1ccc(CS(=O)(=O)NC(=O)C2(c3ccc(Cl)cc3)CCC2)cc1', '%', 96),
  ('COc1ccc(C2(C(=O)NS(=O)(=O)Cc3ccc(C#N)cc3)CCCC2)cc1', '%', 98),
  ('CC(C)(C(=O)NS(=O)(=O)Cc1ccc(C#N)cc1)c1cccc(Br)c1', '%', 91),
  ('Cc1ccc(C(C)(C)C(=O)NS(=O)(=O)Cc2ccc(C#N)cc2)cc1', '%', 92),
  ('N#Cc1ccc(CS(=O)(=O)NC(=O)C2(c3cccc(Cl)c3)CCOCC2)cc1', '%', 96),
  ('N#Cc1ccc(CS(=O)(=O)NC(=O)C2(c3ccc(C(F)(F)F)cc3)CCOCC2)cc1', '%', 92),
  ('CC(C)(C(=O)NS(=O)(=O)Cc1ccccc1C#N)c1ccccc1', '%', 96);
